Numbers sourced from patent US20250188176A1.

# Tested Target: T1, Extracellular domain (ECD) of the canine IL-4 receptor alpha-AviTag-His Tag (canine)
# T1 construct: expressed in CHO cells; also called canine IL-4RA; canine IL4Ra
# T1 chain: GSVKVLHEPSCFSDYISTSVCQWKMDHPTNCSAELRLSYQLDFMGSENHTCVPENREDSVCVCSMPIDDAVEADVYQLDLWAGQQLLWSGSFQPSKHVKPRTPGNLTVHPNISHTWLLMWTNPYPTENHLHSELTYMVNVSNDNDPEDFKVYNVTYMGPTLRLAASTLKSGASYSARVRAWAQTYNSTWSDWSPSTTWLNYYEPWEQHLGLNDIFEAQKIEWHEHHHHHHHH
# Protocol Notes: SPR, IgG captured via anti-dog Fc
Measure Name: pKd
Give bare numbers, as −log10 of the molar value.

# count of solved cases: 5
FJP06D01-H + 21188-L (antibody, V domains shown) VH: EVQLVESGGDLVKPGGSLRLSCVASGFPFRDYAMDWVRQAPGKGLQWLSLISGSGGKTYYADAVKGRFTISRDNAKNTLYLQMNSLRAEDTAVYYCAVDRLTKTIRPQYYGLWVWGQGTLVTVSS VL: DIVMTQTPLSLSVSPGETASISCRSSQSLTYSIGYNYLDWYMQKPGQSPQGLIYLGSKRASGVSDRFSGSGSGADFTLKISRVEADDAGVYYCMQGLQSPLGFGQGTKLEIKR :: 9.04
Gfmix_PTH-H + 21188-L (antibody, V domains shown) VH: EVQLVESGGDLVKPGGSLRLSCVASGFPFRDYAMTWVRQAPGKGLQWLSLISGSGGKTYYADAVKGRFTISRDNAKNTLYLQMNSLRAEDTAVYYCAVDRLTKTIRPQYYGLWHWGQGTLVTVSS VL: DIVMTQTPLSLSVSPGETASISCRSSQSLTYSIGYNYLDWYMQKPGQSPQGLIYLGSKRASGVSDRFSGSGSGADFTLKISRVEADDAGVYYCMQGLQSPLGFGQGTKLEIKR :: 9.42
21188-H + 21188-L (antibody, V domains shown) VH: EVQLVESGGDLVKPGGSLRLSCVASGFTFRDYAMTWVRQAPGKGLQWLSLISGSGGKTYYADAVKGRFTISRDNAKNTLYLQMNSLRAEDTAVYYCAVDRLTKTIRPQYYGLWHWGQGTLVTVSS VL: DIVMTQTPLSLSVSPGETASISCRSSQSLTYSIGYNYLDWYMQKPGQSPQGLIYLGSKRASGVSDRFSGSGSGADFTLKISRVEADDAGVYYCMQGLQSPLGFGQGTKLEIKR :: 9.40
FJP05A03-H + 21188-L (antibody, V domains shown) VH: EVQLVESGGDLVKPGGSLRLSCVASGLPFRDYAMAWVRQAPGKGLQWLSLISGSGGKTYYADAVKGRFTISRDNAKNTLYLQMNSLRAEDTAVYYCAVDRLTKTIRPQYYGLWVWGQGTLVTVSS VL: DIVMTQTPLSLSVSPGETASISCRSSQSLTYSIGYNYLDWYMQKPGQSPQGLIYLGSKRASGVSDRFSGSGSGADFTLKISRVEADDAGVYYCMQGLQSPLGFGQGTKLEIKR :: 9.42
Fjmix_PS-H + 21188-L (antibody, V domains shown) VH: EVQLVESGGDLVKPGGSLRLSCVASGFPFRDYAMDWVRQAPGKGLQWLSLISGSGGKTYYADAVKGRFTISRDNAKNTLYLQMNSLRAEDTAVYYCAVDRLTKTIRPQYYGLWSWGQGTLVTVSS VL: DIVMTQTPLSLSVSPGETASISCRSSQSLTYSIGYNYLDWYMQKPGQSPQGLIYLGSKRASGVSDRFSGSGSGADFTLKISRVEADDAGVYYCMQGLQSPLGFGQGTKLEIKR :: 9.06

Task: State its pKd: FJP07H09-H + 21188-L (antibody, V domains shown) VH: EVQLVESGGDLVKPGGSLRLSCVASGFTFRDYAMDWVRQAPGKGLQWLSLISGSGGKTYYADAVKGRFTISRDNAKNTLYLQMNSLRAEDTAVYYCAVDRLTKTIRPQYYGLWSWGQGTLVTVSS VL: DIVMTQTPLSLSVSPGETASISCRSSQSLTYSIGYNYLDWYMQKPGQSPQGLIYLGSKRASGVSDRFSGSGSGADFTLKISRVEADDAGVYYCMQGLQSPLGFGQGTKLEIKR
Output: 8.97
